Tested on: Plasmodium berghei
Assay: Screen against P. berghei liver stage (PbLuc), transformed with Luciferase, at 10uM
Format: functional, HepG2
Conditions: tested at 10 uM
In all, about 69,000 compounds went through this assay and about 8,600 (12%) showed an effect of 50% or more. This excerpt belongs to a sample that is enriched for strong results.
measured_endpoint: INHIBITION (%)
Give the value, in units of %, as a plain number.

In the examples that follow, each entry is paired with its recorded INHIBITION.
- molecule: "CN(CCSc1nncn1C(C)(C)C)c1ccccc1"
  number: -9.8
- molecule: "CN(Cc1cnn(C)c1)C(=O)Cc1ccc2c(c1)OCCO2"
  number: -18.5
- molecule: "Cc1nn(C)c(N(C)C)c1CNCc1ccccc1Cn1cccn1"
  number: 33.8
- molecule: "O=C(N[C@@H]1CN(Cc2c[nH]nc2-c2ccccc2)C[C@H]1O)c1cc[nH]n1"
  number: -3.182
- molecule: "COc1ncccc1NC(=O)C1CC(=O)N(Cc2ccccn2)C1 (stereo unspecified)"
  number: -8.69

Now for the molecule whose INHIBITION we want.
-- ask Look at this molecule and give its reported INHIBITION. `O=C(C[C@@H]1COC[C@H]2CN(Cc3ccccc3)C[C@@H]12)N1CCCC1`
-- reply 41.2

* * *

# INHIBITION per entry
Tested on: Plasmodium berghei
Experiment: Screen against P. berghei liver stage (PbLuc), transformed with Luciferase, at 10uM
Assay type: functional, HepG2
Details: tested at 10 uM
The campaign covered roughly 69,000 compounds. About 8,600 (12%) showed an effect of 50% or more. The entries come from a sample that favours strong results as a whole.
Give the value, in units of %, as a plain number.

In the examples that follow, each entry is paired with its recorded INHIBITION.
- compound: "CN(Cc1cn2c(n1)CN(C(=O)C1CCOCC1)CC2)Cc1ccco1"
  INHIBITION, %: -8.94
- compound: "CC(=O)N1Cc2ccccc2CC1C(=O)Nc1cc(C)ccn1 (stereo unspecified)"
  INHIBITION, %: 56.5
- compound: "CN(Cc1cn2c(n1)CN(C(=O)CC1CC1)CC2)Cc1ccco1"
  INHIBITION, %: 30.1
- compound: "CC(=O)N1Cc2ccccc2C[C@H]1C(=O)N(C)CCc1ccccn1"
  INHIBITION, %: 58.1
- compound: "Cn1c(CN2CCCCC2)nnc1C1CCCN(c2ccncc2F)C1 (stereo unspecified)"
  INHIBITION, %: -2.43

Now for the compound whose INHIBITION we want.
-- ask Look at this compound and give its reported INHIBITION. `CN(Cc1cn2c(n1)CN(C1CCOCC1)CC2)Cc1ccco1`
-- reply 56.7

* * *

Test system: Plasmodium berghei
Test: Screen against P. berghei liver stage (PbLuc), transformed with Luciferase, at 10uM
Format: functional, HepG2
Conditions: tested at 10 uM
The campaign covered roughly 69,000 compounds. About 8,600 (12%) showed an effect of 50% or more. What follows is part of a selection rich in strong results, with near analogues and random picks from the rest.
measured_endpoint: INHIBITION (%)
Give the value, in units of %, as a plain number.

- compound: "O=C(Cn1nc(-c2ccc(F)cc2)oc1=O)NCc1ccncc1"
  experimental_system: "Plasmodium berghei"
  unit_of_measure: "%"
  number: -6.79
- compound: "C1CCC(CN2Cc3nnn(CC4CC4)c3C(COCC3CC3)C2)C1 (stereo not given)"
  experimental_system: "Plasmodium berghei"
  unit_of_measure: "%"
  number: 63.3
- compound: "Cc1nc(CN2CCC(O)(c3ccccc3F)CC2)c2ccccn12"
  experimental_system: "Plasmodium berghei"
  unit_of_measure: "%"
  number: 23.9
- compound: "c1cc(CN2Cc3nnn(CC4CC4)c3C(COCC3CC3)C2)co1 (stereo not given)"
  experimental_system: "Plasmodium berghei"
  unit_of_measure: "%"
  number: 29.6
- compound: "CN(C)C(=O)N1CC2(CCN(CC3CC3)CC2)c2cc(F)ccc21"
  experimental_system: "Plasmodium berghei"
  unit_of_measure: "%"
  number: -13.4

-- ask API: value(readout=INHIBITION, system=Plasmodium berghei) for record `CCCc1nc(NC2(COC)CCCC2)c2cnn(C)c2n1`
-- reply 22.6

-- ask API: value(readout=INHIBITION, system=Plasmodium berghei) for record CCN(CC)C(CNC(=O)c1c(C)noc1C(C)C)c1ccsc1 (stereo not given)
-- reply 33.7

-- ask API: value(readout=INHIBITION, system=Plasmodium berghei) for record `Cc1nc(CN2CCC3(C2)CN(Cc2ccco2)C3)cs1`
-- reply 56.6

-- ask API: value(readout=INHIBITION, system=Plasmodium berghei) for record `CN(C)CC(C)(C)Cn1cnc(-c2ccccc2)c1-c1cccc(O)c1`
-- reply -39.3

-- ask API: value(readout=INHIBITION, system=Plasmodium berghei) for record `CC(C)N1[C@@H](C(=O)NCCN(C)C)C[C@H]2CN(c3ncccn3)C[C@H]21`
-- reply 37.8

-- ask API: value(readout=INHIBITION, system=Plasmodium berghei) for record `Cc1nc(CN(C)Cc2nc(-c3ccccc3)no2)co1`
-- reply 14.3
